- assay.name: activity coefficient (dimensionless); of the first substance listed, at infinite dilution; xn = mol fraction of the nth substance listed
- experimental.context: 323.15 K; Liquid; Chromatography; x1 = 0
readout: activity coefficient
Answer field: number only, no words.

ClC(Cl)(Cl)Cl [tetrachloromethane] + CCCCCCCCn1cc[n+](C)c1.O=[N+]([O-])[O-] | 1.24

Next item in the queue.
Reported activity coefficient for CC1CCCCC1 [methylcyclohexane] + CCCCCCCCn1cc[n+](C)c1.O=[N+]([O-])[O-] : what is it?
7.37

---

- assay.name: activity coefficient (dimensionless); of the first substance listed, at infinite dilution; xn = mol fraction of the nth substance listed
- experimental.context: 333.15 K; Liquid; Chromatography; x1 = 0
// label 0 strictly below 0.8 in activity coefficient; label 1 otherwise

CCCO [propan-1-ol] + CCCCCCCCn1cc[n+](C)c1.O=[N+]([O-])[O-] | label 0
CC#N [acetonitrile] + CCCCCCCCn1cc[n+](C)c1.O=[N+]([O-])[O-] | label 0
C1CCOC1 [tetrahydrofuran] + CCCCCCCCn1cc[n+](C)c1.O=[N+]([O-])[O-] | label 1

Here is another molecule to look at.
Check the entry ClC(Cl)(Cl)Cl [tetrachloromethane] + CCCCCCCCn1cc[n+](C)c1.O=[N+]([O-])[O-] : does activity coefficient equal or exceed 0.8?
label 1

---

- assay.name: activity coefficient (dimensionless); of the first substance listed, at infinite dilution; xn = mol fraction of the nth substance listed
- experimental.context: 363.15 K; Liquid; Chromatography; x1 = 0
// false strictly below 2 in activity coefficient; true otherwise

CCCCCC [hexane] + CCCCCCCCn1cc[n+](C)c1.O=[N+]([O-])[O-] | true
Cc1ccccc1C [1,2-dimethylbenzene] + CCCCCCCCn1cc[n+](C)c1.O=[N+]([O-])[O-] | false
ClCCl [dichloromethane] + CCCCCCCCn1cc[n+](C)c1.O=[N+]([O-])[O-] | false
CC(C)O [propan-2-ol] + CCCCCCCCn1cc[n+](C)c1.O=[N+]([O-])[O-] | false
Cc1cccc(C)c1 [1,3-dimethylbenzene] + CCCCCCCCn1cc[n+](C)c1.O=[N+]([O-])[O-] | true
CCCO [propan-1-ol] + CCCCCCCCn1cc[n+](C)c1.O=[N+]([O-])[O-] | false

Here is another molecule to look at.
Check the entry CCCCCCC [heptane] + CCCCCCCCn1cc[n+](C)c1.O=[N+]([O-])[O-] : does activity coefficient equal or exceed 2?
true

---

Items are presented alongside their recorded activity coefficient.
- assay.name: activity coefficient (dimensionless); of the first substance listed, at infinite dilution; xn = mol fraction of the nth substance listed
- experimental.context: 353.15 K; Liquid; Chromatography; x1 = 0
Answer field: number only, no words.

C1CCCCC1 [cyclohexane] + CCCCCCCCn1cc[n+](C)c1.O=[N+]([O-])[O-] | 5.09

Reported activity coefficient for Cc1ccccc1C [1,2-dimethylbenzene] + CCCCCCCCn1cc[n+](C)c1.O=[N+]([O-])[O-] : what is it?
1.84

Reported activity coefficient for CC#N [acetonitrile] + CCCCCCCCn1cc[n+](C)c1.O=[N+]([O-])[O-] : what is it?
0.55
